# Tested on: SK-MEL-2 melanoma
# assay.name: NCI tumour cell line growth inhibition, 48 h; in the data active = GI50 below about 0.43 µM; inactive = the rest
Your answer must be one of the following: label 1 (active), label 0 (inactive)

QUERY: Dear all, I need the recorded test outcome for COC1C(O)CC(OC2CC(OC3CC(O[C@@H]4C(=O)c5c(cc6cc(OC7CC(OC8CC(O)C(O)C(C)O8)C(O)C(C)O7)c(C)c(O)c6c5O)CC4[C@H](OC)[C@@H](O)C(C)=O)OC(C)C3O)OC(C)C2O)OC1C (some centres undefined) , thank you.
RESULT: label 1

QUERY: For "CC(C)=CCc1c(O)c(C(=O)CC(C)C)c(O)c2c(-c3ccccc3)cc(=O)oc12" , which call appears in the assay record?
RESULT: label 0

QUERY: Look up the recorded call for CCCCCCC(O)C(O)CCC(O)C1CCC(CCCCC(O)CC2=CC(C)OC2=O)O1 (centres undefined) in this test.
RESULT: label 0

QUERY: What call does the record list for Cc1ccc2c(c1)-c1oc(=O)c(-c3cc4ccccc4oc3=O)cc1C(O)O2 (centres undefined) ?
RESULT: label 0

----------
# Tested on: DU-145 prostate
# assay.name: NCI tumour cell line growth inhibition, 48 h
readout: TGI

QUERY: Quick one: give measured TGI for "CCSc1nc(C)nc2c1sc1nc3ccccc3n12"
RESULT: > 100 µM

QUERY: Using known records, supply TGI for "CCOC(=O)/C=C(/C(=O)OCC)n1ccc(=O)n(CC(=O)OCC)c1=O"
RESULT: 17.1 µM

QUERY: Fill in TGI for record CCCC(=O)Nc1c(I)cc(I)c(CC(CC)C(=O)O)c1I (stereo unspecified)
RESULT: > 100 µM

QUERY: Give TGI for the following molecule: CC(=Nc1ccccc1)C1=C(O)C(Cc2ccc(F)cc2)NC1=O (stereo unspecified)
RESULT: > 100 µM

QUERY: For "CCN(CC)CCOc1ccc(Cc2ccccc2)cc1" , write its TGI.
RESULT: > 100 µM

QUERY: Look up and report measured TGI for this entry: "COc1ccccc1N1CCN(CCCOc2ccc(C(=O)/C=C3/C(=O)Nc4ccccc43)cc2)CC1"
RESULT: 38.1 µM

----------
# Tested on: NCI-H522 lung
# assay.name: NCI tumour cell line growth inhibition, 48 h; in the data active means GI50 below about 0.43 µM; inactive means the rest
Respond with a class label; see t (active), f (inactive)

QUERY: Which outcome was assigned to "CN1CCN(c2ccc(-c3cccc(CN4CCOCC4)c3)cc2NC(=O)c2c[nH]c(=O)cc2C(F)(F)F)CC1" in this test?
RESULT: f

QUERY: Could you check what this test reported for CCC1(N)C(=O)OCc2c1cc1n(c2=O)Cc2cc3ccccc3nc2-1 (centres undefined) ?
RESULT: f

QUERY: How did this test come out for "COc1c2occc2cc2ccc(=O)oc12" ?
RESULT: f

QUERY: // param item: "O=C1c2ccccc2-c2c1c1ccc([N+](=O)[O-])cc1c(=O)n2CCCn1ccnc1" ; yields the recorded call
RESULT: f

QUERY: Fill in: this test's call for "Cc1cc(C)c(O)c(CNCCCNCc2cc(C)cc(C)c2O)c1" is ___
RESULT: f

QUERY: In this assay, the call recorded for "CC(C)=CCc1c(O)c(C(=O)CC(C)C)c(O)c2c(-c3ccccc3)cc(=O)oc12" was what?
RESULT: f

QUERY: Record request — test call for COC1C(O)CC(OC2CC(OC3CC(O[C@@H]4C(=O)c5c(cc6cc(OC7CC(OC8CC(O)C(O)C(C)O8)C(O)C(C)O7)c(C)c(O)c6c5O)CC4[C@H](OC)[C@@H](O)C(C)=O)OC(C)C3O)OC(C)C2O)OC1C (some centres undefined)
RESULT: t

QUERY: Lab log entry: CC(=Nc1ccccc1)C1=C(O)C(Cc2ccc(F)cc2)NC1=O (centres undefined) — outcome as called in the assay?
RESULT: t

QUERY: Recorded call for "COC(=O)CCCNC(=O)C(=O)c1c(O)c(O)c(C(C)C)c2cc(C)c(-c3c(C)cc4c(C(C)C)c(O)c(O)c(C(=O)C(=O)NCCCC(=O)OC)c4c3O)c(O)c12" ?
RESULT: t

QUERY: Assay outcome for "O=S(=O)(NCCNc1cc(-c2cn(-c3ccccc3)nc2-c2cccc(O)c2)ccn1)c1ccc(Br)cc1" : what was it?
RESULT: f

QUERY: How did this test come out for "COc1ccc(-c2cc(-c3ccc(Cl)cc3)nc(SCCCCCCC(=O)NO)n2)cc1" ?
RESULT: f

QUERY: Answer briefly: the call reported for "O=C(Nc1ccc(-n2ccc3c(NC(=O)c4ccccc4)nccc32)cc1)c1ccc(N2CCOCC2)c(C(F)(F)F)c1" in this assay.
RESULT: t

QUERY: Please state the recorded outcome for this compound: "O=c1c(-c2nc3ccccc3[nH]2)cc2ccccc2n1Cc1cn(Cc2ccccc2Cl)nn1"
RESULT: f

QUERY: How did this test come out for "Cc1ccccc1C[P+](c1ccccc1)(c1ccccc1)c1ccccc1" ?
RESULT: f

Just for reference, PubChem BioAssay (NCI) is where these values come from.
